Taken from patent US6376243B1.

# Test target: clone hp78a (human 5-HT4B receptor) (Homo sapiens, UniProt P34969)
# Sequence (P34969 1-445 isoform P34969-2): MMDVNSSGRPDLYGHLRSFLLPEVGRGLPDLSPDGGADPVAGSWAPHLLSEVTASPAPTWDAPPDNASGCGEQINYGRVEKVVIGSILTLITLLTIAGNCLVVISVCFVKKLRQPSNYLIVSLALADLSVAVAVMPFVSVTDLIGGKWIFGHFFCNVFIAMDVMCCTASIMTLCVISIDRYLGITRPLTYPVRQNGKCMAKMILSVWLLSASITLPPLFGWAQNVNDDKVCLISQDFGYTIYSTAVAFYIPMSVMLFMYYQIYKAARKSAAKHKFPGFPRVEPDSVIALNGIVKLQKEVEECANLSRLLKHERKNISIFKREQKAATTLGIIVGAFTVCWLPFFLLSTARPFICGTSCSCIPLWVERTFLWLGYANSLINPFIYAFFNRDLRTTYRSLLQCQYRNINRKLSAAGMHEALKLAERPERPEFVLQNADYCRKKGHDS
# Test protocol: Competition of [3H]5-HT binding to membranes of cells transiently expressing clone hp78a
# Recorded conditions: Apparent dissociation constant Ki
Recorded Ki, one value per entry.

Compound	Test target	Ki / nM
CN1C[C@H](C(=O)N[C@]2(C)O[C@@]3(O)[C@@H]4CCCN4C(=O)[C@H](Cc4ccccc4)N3C2=O)C[C@@H]2c3cccc4[nH]cc(c34)C[C@H]21 [Dihydroergotamine]	clone hp78a (human 5-HT4B receptor) (Homo sapiens, UniProt P34969)	6
CC(C)C[C@H]1C(=O)N2CCC[C@H]2[C@]2(O)O[C@](NC(=O)[C@@H]3C=C4c5cccc6[nH]c(Br)c(c56)C[C@H]4N(C)C3)(C(C)C)C(=O)N12 [Bromocriptine]	clone hp78a (human 5-HT4B receptor) (Homo sapiens, UniProt P34969)	135

====

# Test target: clone hp78a (human 5-HT4B receptor) (Homo sapiens)
# Test protocol: Competition of [3H]5-HT binding to membranes of cells transiently expressing clone hp78a
Y if Hill coefficient nH is below 1. N if not; exact matches included in N.

Compound	Cat
CN1C[C@H](C(=O)N[C@]2(C)O[C@@]3(O)[C@@H]4CCCN4C(=O)[C@H](Cc4ccccc4)N3C2=O)C[C@@H]2c3cccc4[nH]cc(c34)C[C@H]21 [Dihydroergotamine]	N
CC(C)C[C@H]1C(=O)N2CCC[C@H]2[C@]2(O)O[C@](NC(=O)[C@@H]3C=C4c5cccc6[nH]c(Br)c(c56)C[C@H]4N(C)C3)(C(C)C)C(=O)N12	N
CCCN(CCC)CCc1c[nH]c2ccc(C(N)=O)cc12	Y

====

# Test target: clone hp78a (human 5-HT4B receptor) (Homo sapiens)
# Test protocol: Competition of [3H]5-HT binding to membranes of cells transiently expressing clone hp78a
# Recorded conditions: Apparent dissociation constant Ki, 5 nM [3H]5-HT, seven concentrations of competitor, 30 min at 37° C.; Cheng-Prusoff; mean ± S.E.M. from 2-3 determinations
pKi: −log10 of the molar value.
Parameter: pKi

> print(dat)
                                   compound  parameter  limit.sign  observed
1  CN1C[C@@H](NS(=O)(=O)N(C)C)C[C@@H]2c3cccc4c3c(cn4C)C[C@H]21        pKi           =      8.02
2  O=C(c1ccc(F)cc1)C1CCN(CCn2c(=O)[nH]c3ccccc3c2=O)CC1        pKi           <      7.00
3     CNS(=O)(=O)Cc1ccc2[nH]cc(CCN(C)C)c2c1        pKi           =      6.12
4  CN1C[C@H](CNC(=O)OCc2ccccc2)C[C@@H]2c3cccc4c3c(cn4C)C[C@H]21        pKi           =      8.26
5  COc1cc(N)c(Cl)cc1C(=O)NC1CN2CCC1CC2 (centres unmarked) [Zacopride]        pKi           <      6.30

====

# Test target: clone hp78a (human 5-HT4B receptor) (Homo sapiens)
# Test protocol: Competition of [3H]5-HT binding to membranes of cells transiently expressing clone hp78a
Parameter: PERCENT INHIBITION of specific [3H]5-HT binding (%)

> print(dat)
                                   molecule  unit.annotation  observed
1          NCCc1c[nH]c2ccccc12 [Tryptamine]                %        32
2  CC[C@@H](CO)NC(=O)[C@@H]1C=C2c3cccc4c3c(cn4C)C[C@H]2N(C)C1 [Methysergide]                %        51
3    CN(C)CCc1c[nH]c2ccc(O)cc12 [Bufotenin]                %        40

====

# Test target: clone hp78a (human 5-HT4B receptor) (Homo sapiens, UniProt P34969)
# Test protocol: Competition of [3H]5-HT binding to membranes of cells transiently expressing clone hp78a
# Recorded conditions: read-out: Apparent dissociation constant Ki; 5 nM [3H]5-HT, seven concentrations of competitor, 30 min at 37° C.; Cheng-Prusoff; mean ± S.E.M. from 2-3 determinations
Parameter: Ki

> print(dat)
                                 cpd.smiles  observed
1  CN1[C@@H]2CC[C@H]1C[C@@H](OC(=O)c1c[nH]c3ccccc13)C2  > 500 nM

====

# Test target: clone hp78a (human 5-HT4B receptor) (Homo sapiens, UniProt P34969)
# Test protocol: Competition of [3H]5-HT binding to membranes of cells transiently expressing clone hp78a
# Recorded conditions: 5 nM [3H]5-HT, 30 min at 37° C.; mean ± S.E.M.
Parameter: Hill coefficient nH

> print(dat)
                                   compound  observed
1     CNS(=O)(=O)Cc1ccc2[nH]cc(CCN(C)C)c2c1      0.88
2  CN1C[C@@H](NS(=O)(=O)N(C)C)C[C@@H]2c3cccc4c3c(cn4C)C[C@H]21      1.09
3  CN1C[C@H](CNC(=O)OCc2ccccc2)C[C@@H]2c3cccc4c3c(cn4C)C[C@H]21      1.23
4  NCCc1c[nH]c2ccc(O)cc12 [5-HT, 5-hydroxytryptamine]      1.07
5  CCCN(CCC)C1CCc2cccc(O)c2C1 (centres unmarked)      0.76

====

# Test target: clone hp78a (human 5-HT4B receptor) (Homo sapiens)
# Test protocol: Competition of [3H]5-HT binding to membranes of cells transiently expressing clone hp78a
Parameter: PERCENT INHIBITION of specific [3H]5-HT binding (%)

> print(dat)
                                   molecule  observed
1                   Cc1[nH]c2ccc(O)cc2c1CCN         7
2  CN1C[C@H](C(=O)N[C@]2(C)O[C@@]3(O)[C@@H]4CCCN4C(=O)[C@H](Cc4ccccc4)N3C2=O)C=C2c3cccc4[nH]cc(c34)C[C@H]21        79
3   CC(C)NCC(O)COc1cccc2[nH]ccc12 (racemic)        11
4                  c1ccc2c(N3CCNCC3)cccc2c1        44
